Hey, just so you know, these numbers are from ChEMBL document CHEMBL1134280.

target: Tyrosine-protein phosphatase non-receptor type 1 (Homo sapiens, UniProt P18031); experiment: Inhibitory Activity against Recombinant Human PTP1
Sequence (P18031 whole entry): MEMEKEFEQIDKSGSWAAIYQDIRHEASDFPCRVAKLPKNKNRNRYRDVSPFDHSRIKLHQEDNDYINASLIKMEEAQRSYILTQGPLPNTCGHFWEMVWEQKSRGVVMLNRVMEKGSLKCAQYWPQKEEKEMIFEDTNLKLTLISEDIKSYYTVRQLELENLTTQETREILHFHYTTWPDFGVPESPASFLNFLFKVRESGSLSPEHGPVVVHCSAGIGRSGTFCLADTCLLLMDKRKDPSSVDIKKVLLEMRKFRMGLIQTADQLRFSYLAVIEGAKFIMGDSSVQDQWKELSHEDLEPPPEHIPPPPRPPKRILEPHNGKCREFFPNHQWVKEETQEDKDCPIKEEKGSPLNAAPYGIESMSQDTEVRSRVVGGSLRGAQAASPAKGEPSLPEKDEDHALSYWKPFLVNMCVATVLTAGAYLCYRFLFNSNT
Measured IC50 of individual entries

Worked cases, answers included:
molecule: O=C1/C(=N/CCc2cc(Br)c(O)c(Br)c2)C=C(O)c2cccnc21
IC50: 8 µM

molecule: O=C1C(Cl)=C(Cl)C(=O)c2ncncc21
IC50: > 10 µM

molecule: O=C1C(Cl)=C(Cl)C(=O)c2cnncc21
IC50: > 10 µM

molecule: CCCCCCOc1ccc(NC2=C(Cl)C(=O)c3cccnc3C2=O)cc1
IC50: > 10 µM

stdin: What does the record list as IC50 for O=C1/C(=N\C(Cc2c[nH]c3ccccc23)C(=O)O)C(Cl)=C(O)c2cccnc21 (stereo not drawn) ?
stdout: > 10 µM

stdin: Check COc1cc(CC/N=C2\C=C(O)c3cccnc3C2=O)ccc1O too.
stdout: > 100 µM

stdin: Check O=C1C(Cl)=C(Cl)C(=O)c2cnccc21 too.
stdout: > 10 µM

stdin: Check O=C1C(NCCN2CCOCC2)=C(Cl)C(=O)c2ncccc21 too.
stdout: > 10 µM

stdin: Check O=C1C(Cl)=C(NCCN2CCOCC2)C(=O)c2cnccc21 too.
stdout: > 10 µM

stdin: Check CC(/N=C1\C=C(O)c2ncccc2C1=O)C(O)c1ccccc1 (stereo not drawn) too.
stdout: > 10 µM

stdin: Check COC(=O)c1nc(-c2ccc3c(n2)C(=O)C(=N)C(OC)=C3O)c(N)c(-c2ccc(OC)c(OC)c2O)c1C too.
stdout: 8.7 µM

stdin: Check CC(/N=C1\C=C(O)c2cccnc2C1=O)C(O)c1ccccc1 (stereo not drawn) too.
stdout: > 100 µM

stdin: Check O=C1C(Cl)=C(N2CCN(CCOCCO)CC2)C(=O)c2ncccc21 too.
stdout: > 10 µM

---

Measured log10 of IC50 of individual entries
Target: M-phase inducer phosphatase 2 (Homo sapiens, UniProt P30305)
Sequence (P30305 whole entry): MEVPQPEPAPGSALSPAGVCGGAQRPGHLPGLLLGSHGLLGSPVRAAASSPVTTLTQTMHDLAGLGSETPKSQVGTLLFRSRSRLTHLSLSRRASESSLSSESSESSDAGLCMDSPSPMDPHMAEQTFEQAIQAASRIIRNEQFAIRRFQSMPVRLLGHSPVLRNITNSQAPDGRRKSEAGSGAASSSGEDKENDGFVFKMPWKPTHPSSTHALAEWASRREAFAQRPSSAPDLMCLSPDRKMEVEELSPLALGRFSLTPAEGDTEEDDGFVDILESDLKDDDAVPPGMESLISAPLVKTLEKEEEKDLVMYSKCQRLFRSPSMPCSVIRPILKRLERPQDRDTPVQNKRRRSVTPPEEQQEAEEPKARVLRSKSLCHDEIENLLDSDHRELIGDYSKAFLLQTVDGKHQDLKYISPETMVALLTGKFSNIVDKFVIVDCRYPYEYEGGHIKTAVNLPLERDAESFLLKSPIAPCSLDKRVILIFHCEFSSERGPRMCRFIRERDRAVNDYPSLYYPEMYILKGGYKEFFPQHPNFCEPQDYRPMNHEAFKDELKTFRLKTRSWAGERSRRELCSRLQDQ
Test: Inhibitory activity against recombinant human cell division cycle 25B
Please be aware that the numbers have been log10-transformed from IC50 in nM.

Worked cases, answers included:
molecule: COC(=O)c1nc(-c2ccc3c(n2)C(=O)C(=N)C(OC)=C3O)c(N)c(-c2ccc(OC)c(OC)c2O)c1C
target_or_test_system: M-phase inducer phosphatase 2 (Homo sapiens, UniProt P30305)
log10 of IC50: 2.57

molecule: O=C1C(Cl)=C(Cl)C(=O)c2ncccc21
target_or_test_system: M-phase inducer phosphatase 2 (Homo sapiens, UniProt P30305)
log10 of IC50: 3.66

molecule: O=C1/C(=N/CCc2cc(Br)c(O)c(Br)c2)C=C(O)c2cccnc21
target_or_test_system: M-phase inducer phosphatase 2 (Homo sapiens, UniProt P30305)
log10 of IC50: 2.81

molecule: O=C1C(Cl)=C(NCCN2CCOCC2)C(=O)c2cnncc21
target_or_test_system: M-phase inducer phosphatase 2 (Homo sapiens, UniProt P30305)
log10 of IC50: 2.63

molecule: O=C1C(Cl)=C(NCCN2CCOCC2)C(=O)c2cnccc21
target_or_test_system: M-phase inducer phosphatase 2 (Homo sapiens, UniProt P30305)
log10 of IC50: 2.77

stdin: What does the record list as log10 of IC50 for O=C1C(Cl)=C(Cl)C(=O)c2cnccc21 ?
stdout: 3.18

stdin: Check O=C1C(NCCN2CCOCC2)=C(Cl)C(=O)c2ncccc21 too.
stdout: 2.91

stdin: Check O=C1/C(=N\C(Cc2c[nH]c3ccccc23)C(=O)O)C(Cl)=C(O)c2cccnc21 (configuration not stated) too.
stdout: 4.20

stdin: Check O=C1C(Cl)=C(N2CCN(CCOCCO)CC2)C(=O)c2ncccc21 too.
stdout: 2.95
